TARGET OR SYSTEM: Thyrotropin receptor (Homo sapiens) (UniProt P16473)
Sequence (P16473 whole entry, looked up): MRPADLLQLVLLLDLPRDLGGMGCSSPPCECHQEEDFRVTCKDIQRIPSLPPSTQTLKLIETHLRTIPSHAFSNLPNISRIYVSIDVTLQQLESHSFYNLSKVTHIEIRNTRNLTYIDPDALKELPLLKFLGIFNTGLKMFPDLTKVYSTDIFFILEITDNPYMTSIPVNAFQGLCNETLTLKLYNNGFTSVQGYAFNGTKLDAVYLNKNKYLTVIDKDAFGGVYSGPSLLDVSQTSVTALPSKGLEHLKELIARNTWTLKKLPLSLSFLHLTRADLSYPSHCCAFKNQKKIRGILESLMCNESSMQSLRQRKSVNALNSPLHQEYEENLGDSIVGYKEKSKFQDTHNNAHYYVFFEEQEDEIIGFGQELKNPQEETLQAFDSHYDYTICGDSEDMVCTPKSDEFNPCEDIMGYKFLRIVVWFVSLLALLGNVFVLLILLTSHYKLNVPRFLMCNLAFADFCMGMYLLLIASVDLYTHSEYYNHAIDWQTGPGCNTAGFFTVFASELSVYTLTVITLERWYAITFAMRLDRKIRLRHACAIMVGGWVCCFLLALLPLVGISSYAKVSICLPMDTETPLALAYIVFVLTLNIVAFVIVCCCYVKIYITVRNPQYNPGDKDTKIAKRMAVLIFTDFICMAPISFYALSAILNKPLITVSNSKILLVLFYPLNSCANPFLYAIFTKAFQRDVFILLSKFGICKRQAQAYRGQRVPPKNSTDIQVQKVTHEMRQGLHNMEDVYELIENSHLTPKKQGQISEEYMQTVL
ASSAY METHOD TEXT: qHTS for antagonists of the Thyroid Stimulation Hormone Receptor: Hit Validation in Primary Screen; note: nearly all actives have a fitted effect of over 80% in size
EXPERIMENTAL CONTEXT: TSHR-expressing cells, cAMP antagonist mode; series mostly up to 58 µM
Hit rate of the full screen: of about 1,300 compounds, about 380 (29%) were called active. Roughly 37% stayed inconclusive and do not appear here. Calls come from the whole dose curve; as a rule, active = well fitted inhibition curve with a large enough effect; inconclusive = small, poorly fitted or top-dose-only effect; inactive = flat fitted curve, though single readings scatter. The list shows a part of the results.
Thanks in advance; please answer with one of these: active, inactive

These solved cases illustrate the format of a correct answer.
1. O=C(Nc1ccccc1C(=O)N1CCN(c2cccc(Cl)c2)CC1)C1=CSCCO1    inactive
2. O=C(NCCc1ccccc1)c1cccnc1N1CCCCCC1    inactive
3. O=C(N/N=C/c1cccc(Oc2ccc([N+](=O)[O-])cc2[N+](=O)[O-])c1)c1cncc(Br)c1    active
4. COc1cc(C(C(=O)NCc2ccccc2)N(C(=O)c2snc(C(N)=O)c2N)C2CCCC2)cc(OC)c1OC (stereo unspecified)    inactive
5. COc1cc(NC(=O)C(C)C)ccc1NC(=O)c1ccco1    inactive
6. CC1=CCC2C(=O)N(c3ccc(C(=O)Nc4ccccc4Cl)cc3)C(=O)C2C1 (stereo unspecified)    inactive

In the following, a different compound is considered.
Q: Recorded test call requested for O=C1NC(=S)SC1=C1CCCCCC1
A: active

Sourced from PubChem BioAssay AID602292
